Molecular target: human recombinant NAPRT (Homo sapiens, UniProt Q6XQN6)
Sequence (Q6XQN6 1-538): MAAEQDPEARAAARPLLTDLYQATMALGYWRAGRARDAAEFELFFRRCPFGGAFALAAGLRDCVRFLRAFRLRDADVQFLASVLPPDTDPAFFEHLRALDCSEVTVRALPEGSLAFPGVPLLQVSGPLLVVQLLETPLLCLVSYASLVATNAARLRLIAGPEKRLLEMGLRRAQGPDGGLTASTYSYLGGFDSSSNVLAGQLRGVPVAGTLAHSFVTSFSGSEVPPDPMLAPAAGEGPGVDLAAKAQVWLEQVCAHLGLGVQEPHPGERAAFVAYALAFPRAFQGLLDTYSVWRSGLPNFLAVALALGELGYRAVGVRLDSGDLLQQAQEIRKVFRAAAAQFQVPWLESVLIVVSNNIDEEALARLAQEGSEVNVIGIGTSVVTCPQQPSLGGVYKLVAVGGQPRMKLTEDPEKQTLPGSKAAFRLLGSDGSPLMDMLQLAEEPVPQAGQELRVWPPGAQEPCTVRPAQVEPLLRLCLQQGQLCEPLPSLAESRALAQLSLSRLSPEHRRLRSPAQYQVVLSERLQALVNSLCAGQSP
Assay: Continuous coupled fluorometric NADH assay of NAPRT activity
Listing of recorded inhibition at 500 µM by entry.

{"Molecule": "O=C(O)c1ccccc1", "inhibition at 500 µM [%]": 8}
{"Molecule": "O=C(O)c1ccc(O)nc1 [Compound 8, 6-hydroxynicotinic acid]", "inhibition at 500 µM [%]": 0}
{"Molecule": "O=C(O)c1ccc(Cl)nc1", "inhibition at 500 µM [%]": 44}
{"Molecule": "Nc1ccccc1C(=O)O", "inhibition at 500 µM [%]": 5}
